// values below are reported Growth Rate
Test system: Fibroblast
measurement notes: Incucyte cell viability with human fibroblast; further: unitless GR value; below 1 slowed growth and below 0 cell loss
Type: toxicity, cell-based
stated conditions: 18 h, 10 µM, compound concentration 10 uM, replicate number 2

In the examples that follow, each entry is paired with its recorded Growth Rate.
• O=C1c2c(Br)c(Br)c(Br)c(Br)c2C(=O)N1c1ncc[nH]1 = 1
• O=C(Nc1cccc(C(F)(F)F)c1)c1cc(Cl)ccc1O = -0.55
• c1ccc(Cn2c(N3CCNCC3)nc3ccccc32)cc1 [LERISETRON] = 0.56
• C[C@@H](Cn1c(=O)[nH]/c(=N\c2ccc(Oc3ccccn3)cc2)n(Cc2ccc(Cl)cc2)c1=O)C(=O)O = 0.75
• C[C@@H]1CC(=O)N(C2CC2)N=C1c1ccc(NC(=O)N2Cc3ccncc3C2)cc1 = 0.85
• CC[C@@]1(c2ccccc2)NC(=O)N(Cc2ccccc2)C1=O = 0.7
• CC(C)(O)c1cnc(N2C[C@@]3(CCC[C@](C)(Cn4cnc5ccc(C#N)cc54)C3)OC2=O)cn1 [GSK2798745] = 0.4
• COc1ccc(-n2nc(C(F)(F)F)cc2-c2ccc(Cl)cc2)cc1 [SC-560] = 0.54

// next item, Growth Rate requested
Query block: Given the molecule CCN1C(=O)N(c2c(F)c(OC)cc(OC)c2F)Cc2cnc3[nH]c(CN4CCOCC4)cc3c21 [PEMIGATINIB] , write its reported Growth Rate.
Result block: 0.53

---

System: Fibroblast
measurement notes: Incucyte cell viability with human fibroblast; further: unitless GR value; below 1 slowed growth and below 0 cell loss
Assay type: toxicity, cell-based
stated conditions: 0 h, 10 µM, compound concentration 10 uM, replicate number 1
// values below are reported Growth Rate
Give only the figure.

In the examples that follow, each entry is paired with its recorded Growth Rate.
- CCO[C@@H](Cc1ccc(OCCc2ccc(OS(C)(=O)=O)cc2)cc1)C(=O)O: 0.92
- COc1cc(-c2cc(-c3cccc(O)c3)cnc2N)cc(OC)c1OC: 0.1
- CCCCOc1c(C(=O)c2c(F)cc(C)cc2F)c[nH]c2nncc1-2: -1
- COc1cc2ncnc(Nc3ccc(Oc4ccccc4)cc3C)c2cc1OC.Cl: -0.71
- CC(C)[C@H](C(=O)Nc1ccc(C(=O)NO)cc1)c1ccccc1: 0.71

// next item, Growth Rate requested
Query block: GET Growth Rate where system = Fibroblast and item = C[C@]12CC[C@H](O)CC1=CC[C@@H]1[C@@H]2CC[C@]2(C)C(n3cnc4ccccc43)=CC[C@@H]12
Result block: -0.16

---

Tested on: HEK-293T
measurement notes: Incucyte cell viability with HEK293T; further: unitless GR value; below 1 slowed growth and below 0 cell loss
Type: toxicity, cell-based
stated conditions: human, 24 h, 10 µM, compound concentration 10 uM, replicate number 1
Cut-off 0.3 on Growth Rate: below means 1, at or above means 0.

Reference set, count: 10
- Cc1cn(CCN2CCN(c3ccccc3-c3cc(C#N)cc(C(=O)NCCCN4CCCC4)c3)CC2)c2ccccc12: 1
- Cc1sc(C(=O)c2cncnc2N[C@@H]2C[C@H](COS(N)(=O)=O)[C@@H](O)C2)cc1[C@@H]1NCCc2ccc(Cl)cc21: 0
- COC[C@@H](CC(C)C)NC1=N/C(=C\c2ccc3ncsc3c2)C(=O)N1C: 0
- CC[C@H](Nc1c(C#N)c(-c2ccc(-c3cccc(C)c3F)cc2)nc2cnccc12)C(=O)O [BAY-0361]: 0
- CCN1CCN(Cc2ccc(Nc3ncc(F)c(-c4cc(F)c5nc(C)n(C(C)C)c5c4)n3)nc2)CC1 [ABEMACICLIB]: 0
- CCCS(=O)(=O)Nc1ccc(F)c(Nc2ncnc3cnc(-n4cnc(C)c4)nc23)c1F: 0
- Cc1cc(=O)oc2cc(NC(=O)[C@H](Cc3ccc(I)cc3)NC(=O)[C@H]3N[C@@H]4CC[C@H]3C4)ccc12.O=C(O)C(F)(F)F: 0
- CC(C)Nc1ncnc2cc(OCc3cccc([S@@](C)(=N)=O)c3)c(Br)cc12: 0
- Cc1cccc(CC(=O)N2CCc3c2ccc(-c2cn(C)c4ncnc(N)c24)c3F)n1: 0
- CCN1/C(=C/C(C)=O)Sc2ccc(OC(C)=O)cc21: 1

Query block: Is Growth Rate of Cc1ccc(-c2cn3nc(C(=O)NC4(c5ccc(F)cc5)CN(C)C4)c(C(C)C)c3c(=O)[nH]2)cc1C strictly below 0.3?
Result block: 1

Query block: Is Growth Rate of CN1CCN(C(=O)c2ccc3cc2OCCOCCNc2ccn4ncc-3c4n2)CC1 strictly below 0.3?
Result block: 0

Query block: Is Growth Rate of CN(C(=O)c1ccccc1)c1ccc2c(c1)nc(NC(=O)c1ccc(Br)s1)n2CCC(N)=O strictly below 0.3?
Result block: 0

Query block: Is Growth Rate of C[C@@H]1COCCN1c1cc(=O)n2c(n1)N(Cc1cncc(Cl)c1)[C@H](C(F)(F)F)CC2 strictly below 0.3?
Result block: 0

Query block: Is Growth Rate of CN1CCC[C@H]1c1cccnc1 [NICOTINE] strictly below 0.3?
Result block: 0

Query block: Is Growth Rate of COc1cc([N+](=O)[O-])ccc1NC(=O)c1ccccc1O strictly below 0.3?
Result block: 1

Query block: Is Growth Rate of CC(=O)NCC(=O)N1[C@@H]2CC[C@H]1c1ccc(Nc3ncc(C(F)(F)F)c(NC4CCC4)n3)cc12 [PF-03814735] strictly below 0.3?
Result block: 1

Query block: Is Growth Rate of CN1CCc2cc(Nc3ncc(C(F)(F)F)c(NCc4cc[nH]n4)n3)ccc2C1 strictly below 0.3?
Result block: 1

Query block: Is Growth Rate of CCCCCCCC/C=C\CCCCCCCC(=O)NCc1ccc(O)c(OC)c1 [OLVANIL] strictly below 0.3?
Result block: 1
